Target: T1, murine IL-11 (Invigate, e.g., lot #C210819-09) (mouse, UniProt P47873 22-199)
T1 construct: Bought protein; biotinylated where captured on streptavidin plates; also called mIL-11; mIL11
T1 sequence: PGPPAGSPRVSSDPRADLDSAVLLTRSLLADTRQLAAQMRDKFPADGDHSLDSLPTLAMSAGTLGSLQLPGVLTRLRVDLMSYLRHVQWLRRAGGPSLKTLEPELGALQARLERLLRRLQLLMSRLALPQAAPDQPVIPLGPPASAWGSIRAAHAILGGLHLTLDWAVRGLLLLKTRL
Test: SPR, Biacore 8K; antibody captured on anti-human IgG Fc chip, IL-11 analyte 0-50 nM, 1:1 fit
# if measured Kd < 20 nM: 1  # else: -1

Solved cases below.
TPP-31300 (antibody, human IgG4, V domains shown, consecutive numbering; also called VH-D54E) VH: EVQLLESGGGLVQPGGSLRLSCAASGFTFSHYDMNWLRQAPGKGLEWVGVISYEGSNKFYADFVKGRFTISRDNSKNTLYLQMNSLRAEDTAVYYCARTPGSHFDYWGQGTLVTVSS VL: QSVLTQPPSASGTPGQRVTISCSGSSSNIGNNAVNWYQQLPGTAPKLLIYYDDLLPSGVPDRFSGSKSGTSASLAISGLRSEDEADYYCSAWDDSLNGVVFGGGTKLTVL    1
TPP-31293 (antibody, human IgG4, V domains shown, consecutive numbering; also called VH-L37V) VH: EVQLLESGGGLVQPGGSLRLSCAASGFTFSHYDMNWVRQAPGKGLEWVGVISYDGSNKFYADFVKGRFTISRDNSKNTLYLQMNSLRAEDTAVYYCARTPGSHFDYWGQGTLVTVSS VL: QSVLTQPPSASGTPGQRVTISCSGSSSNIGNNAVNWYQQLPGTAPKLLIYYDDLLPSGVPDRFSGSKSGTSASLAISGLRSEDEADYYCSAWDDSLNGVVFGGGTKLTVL    1
TPP-31278 (antibody, human IgG4, V domains shown, consecutive numbering; also called VL-A33Y) VH: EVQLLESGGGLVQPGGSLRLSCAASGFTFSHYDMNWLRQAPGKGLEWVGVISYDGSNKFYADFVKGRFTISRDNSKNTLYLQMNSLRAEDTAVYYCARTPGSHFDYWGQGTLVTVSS VL: QSVLTQPPSASGTPGQRVTISCSGSSSNIGNNYVNWYQQLPGTAPKLLIYYDDLLPSGVPDRFSGSKSGTSASLAISGLRSEDEADYYCSAWDDSLNGVVFGGGTKLTVL    1
TPP-31301 (antibody, human IgG4, V domains shown, consecutive numbering; also called VH-D54E / VL-N97Q) VH: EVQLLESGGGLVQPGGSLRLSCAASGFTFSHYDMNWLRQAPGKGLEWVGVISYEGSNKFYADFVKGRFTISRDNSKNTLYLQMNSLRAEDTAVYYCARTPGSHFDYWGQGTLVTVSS VL: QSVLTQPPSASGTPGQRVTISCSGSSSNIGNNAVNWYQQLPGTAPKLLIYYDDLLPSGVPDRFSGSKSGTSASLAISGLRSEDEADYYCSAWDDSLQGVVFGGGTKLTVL    1
TPP-31306 (antibody, human IgG4, V domains shown, consecutive numbering; also called VH-G55A / VL-N97S) VH: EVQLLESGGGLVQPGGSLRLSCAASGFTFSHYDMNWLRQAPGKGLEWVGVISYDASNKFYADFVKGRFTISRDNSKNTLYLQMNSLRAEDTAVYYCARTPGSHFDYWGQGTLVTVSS VL: QSVLTQPPSASGTPGQRVTISCSGSSSNIGNNAVNWYQQLPGTAPKLLIYYDDLLPSGVPDRFSGSKSGTSASLAISGLRSEDEADYYCSAWDDSLSGVVFGGGTKLTVL    -1
TPP-31305 (antibody, human IgG4, V domains shown, consecutive numbering; also called VH-G55A / VL-N97Q) VH: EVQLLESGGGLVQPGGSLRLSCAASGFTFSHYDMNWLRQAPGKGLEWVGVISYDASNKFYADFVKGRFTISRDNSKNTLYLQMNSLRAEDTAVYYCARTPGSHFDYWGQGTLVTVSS VL: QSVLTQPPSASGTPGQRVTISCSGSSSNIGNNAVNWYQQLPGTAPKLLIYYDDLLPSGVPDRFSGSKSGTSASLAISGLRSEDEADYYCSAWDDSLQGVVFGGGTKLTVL    -1
TPP-31282 (antibody, human IgG4, V domains shown, consecutive numbering; also called VL-D53N) VH: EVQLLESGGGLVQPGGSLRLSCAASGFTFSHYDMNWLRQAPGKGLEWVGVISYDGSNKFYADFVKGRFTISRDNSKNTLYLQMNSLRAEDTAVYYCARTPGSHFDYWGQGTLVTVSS VL: QSVLTQPPSASGTPGQRVTISCSGSSSNIGNNAVNWYQQLPGTAPKLLIYYDNLLPSGVPDRFSGSKSGTSASLAISGLRSEDEADYYCSAWDDSLNGVVFGGGTKLTVL    1
TPP-31284 (antibody, human IgG4, V domains shown, consecutive numbering; also called VL-L55R) VH: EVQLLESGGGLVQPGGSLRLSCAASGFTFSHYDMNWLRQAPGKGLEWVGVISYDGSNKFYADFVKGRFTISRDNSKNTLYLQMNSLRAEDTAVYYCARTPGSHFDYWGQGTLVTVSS VL: QSVLTQPPSASGTPGQRVTISCSGSSSNIGNNAVNWYQQLPGTAPKLLIYYDDLRPSGVPDRFSGSKSGTSASLAISGLRSEDEADYYCSAWDDSLNGVVFGGGTKLTVL    1

Exercise: Lab note: Kd threshold 20 nM. Does this binder come in strictly under it? TPP-31309 (antibody, human IgG4, V domains shown, consecutive numbering; also called VH-G55S / VL-N97Q) VH: EVQLLESGGGLVQPGGSLRLSCAASGFTFSHYDMNWLRQAPGKGLEWVGVISYDSSNKFYADFVKGRFTISRDNSKNTLYLQMNSLRAEDTAVYYCARTPGSHFDYWGQGTLVTVSS VL: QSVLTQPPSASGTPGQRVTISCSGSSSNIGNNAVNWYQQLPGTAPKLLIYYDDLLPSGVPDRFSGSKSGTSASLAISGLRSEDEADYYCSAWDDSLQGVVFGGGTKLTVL
Solution: -1

Exercise: Does the reported Kd of the following binder sit strictly below 20 nM? TPP-31308 (antibody, human IgG4, V domains shown, consecutive numbering; also called VH-G55S) VH: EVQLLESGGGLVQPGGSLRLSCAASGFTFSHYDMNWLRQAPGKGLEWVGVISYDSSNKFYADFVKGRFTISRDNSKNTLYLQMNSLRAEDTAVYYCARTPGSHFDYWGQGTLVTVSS VL: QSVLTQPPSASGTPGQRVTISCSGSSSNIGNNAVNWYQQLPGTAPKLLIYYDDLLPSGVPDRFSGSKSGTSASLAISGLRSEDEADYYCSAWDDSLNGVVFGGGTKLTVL
Solution: -1

Values compiled from patent US20240317847A1.
